Molecular target: UniProt P10275
Test: AR Antagonist Cell Assay (MMTV-luciferase reporter, DHT-stimulated)
Settings: MDA-MB453-MMTV clone 54-19 cells; antagonism of 100 pM DHT, 17 hr, luciferase readout
ATTRIBUTE_MEASURED: IC50 (µM)

Here is how some compounds turned out for IC50.
| LINE_NOTATION | ASSAY_SYSTEM | ATTRIBUTE_MEASURED | RECORDED_VALUE |
| --- | --- | --- | --- |
| O=c1cc(C(F)(F)F)c2cc(Cc3ccc(S(=O)(=O)Nc4cccc5c4CCC5)cc3)ccc2o1 | UniProt P10275 | IC50 | 4.77 |
| CCCCN(CC)S(=O)(=O)c1ccc(Cc2ccc3oc(=O)cc(C(F)(F)F)c3c2)cc1 | UniProt P10275 | IC50 | 4.15 |
| N#Cc1cccc(NS(=O)(=O)c2ccc(Cc3ccc4[nH]c(=O)cc(C(F)(F)F)c4c3)cc2)c1 | UniProt P10275 | IC50 | 2.02 |

I = CC(C)c1ccc(NS(=O)(=O)c2ccc(Cc3ccc4oc(=O)cc(C(F)(F)F)c4c3)cc2)cc1
II = O=c1cc(C(F)(F)F)c2cc(Cc3ccc(S(=O)(=O)Nc4cccc(CO)c4)cc3)ccc2o1
III = O=c1cc(C(F)(F)F)c2cc(Cc3ccc(S(=O)(=O)N(Cc4ccccc4)Cc4ccccc4)cc3)ccc2o1
Request: In this exercise, place the 3 compounds in ascending sequence of their recorded IC50. Record the ranking as a list of labels in the requested order.
Response: II, I, III
(II: 1.83 µM, I: 3.91 µM, III: 8.26 µM)

----------
Target: androgen receptor (Homo sapiens, UniProt P10275)
Sequence (P10275 1-920 Q868H): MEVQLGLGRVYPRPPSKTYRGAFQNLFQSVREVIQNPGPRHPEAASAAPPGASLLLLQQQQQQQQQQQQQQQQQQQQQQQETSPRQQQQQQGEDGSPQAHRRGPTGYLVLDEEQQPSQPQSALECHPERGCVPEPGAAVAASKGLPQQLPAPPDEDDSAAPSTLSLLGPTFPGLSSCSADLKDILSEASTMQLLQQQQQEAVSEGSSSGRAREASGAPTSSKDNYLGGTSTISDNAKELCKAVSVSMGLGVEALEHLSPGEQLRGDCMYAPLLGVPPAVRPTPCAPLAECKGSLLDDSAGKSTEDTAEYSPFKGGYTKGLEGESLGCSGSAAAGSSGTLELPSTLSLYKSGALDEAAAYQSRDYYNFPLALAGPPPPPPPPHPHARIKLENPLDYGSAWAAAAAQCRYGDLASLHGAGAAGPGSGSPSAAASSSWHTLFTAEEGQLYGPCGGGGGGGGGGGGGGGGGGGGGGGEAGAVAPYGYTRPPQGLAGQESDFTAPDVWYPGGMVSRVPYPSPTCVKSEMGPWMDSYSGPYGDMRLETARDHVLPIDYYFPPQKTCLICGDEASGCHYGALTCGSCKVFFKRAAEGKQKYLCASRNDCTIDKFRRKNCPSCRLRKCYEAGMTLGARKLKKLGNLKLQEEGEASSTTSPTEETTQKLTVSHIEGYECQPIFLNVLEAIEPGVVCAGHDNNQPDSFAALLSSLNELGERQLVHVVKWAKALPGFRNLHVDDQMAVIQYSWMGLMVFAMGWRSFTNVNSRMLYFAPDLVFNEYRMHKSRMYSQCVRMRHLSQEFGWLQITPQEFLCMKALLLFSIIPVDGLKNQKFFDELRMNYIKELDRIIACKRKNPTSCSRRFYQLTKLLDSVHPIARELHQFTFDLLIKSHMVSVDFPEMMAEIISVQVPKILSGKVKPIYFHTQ
Assay: AR Antagonist Cell Assay (MMTV-luciferase reporter, DHT-stimulated)
Conditions: MDA-MB453-MMTV clone 54-19 cells; antagonism of 100 pM DHT, 17 hr, luciferase readout
pIC50: −log10 of the molar value.
ATTRIBUTE_MEASURED: pIC50

Here is how some molecules turned out for pIC50.
| MOLECULE | RECORDED_VALUE |
| --- | --- |
| Cc1ccc(F)c(CNS(=O)(=O)c2ccc(Cc3ccc4oc(=O)cc(C(F)(F)F)c4c3)cc2)c1Cl [Example 200] | 5.16 |
| C#Cc1ccc(NS(=O)(=O)c2ccc(Cc3ccc4oc(=O)cc(C(F)(F)F)c4c3)cc2)cc1 [Example 118] | 5.26 |
| O=c1cc(C(F)(F)F)c2cc(Cc3ccc(S(=O)(=O)NC4CCN(Cc5ccccc5)CC4)cc3)ccc2[nH]1 [Example 52] | 5.00 |
| Cc1ccc(F)cc1CNS(=O)(=O)c1ccc(Cc2ccc3[nH]c(=O)cc(C(F)(F)F)c3c2)cc1 [Example 67] | 5.08 |
| O=c1cc(C(F)(F)F)c2cc(Cc3ccc(S(=O)(=O)NC4CCc5ccccc54)cc3)ccc2o1 (stereo not drawn) [Example 178] | 5.11 |
| Cc1cccc(NS(=O)(=O)c2ccc(Cc3ccc4oc(=O)cc(C(F)(F)F)c4c3)cc2)c1 [Example 115] | 5.69 |

1 = O=c1cc(C(F)(F)F)c2cc(Cc3ccc(S(=O)(=O)NCCO)cc3)ccc2[nH]1 [Example 51]
2 = O=C1CCCN1CCCNS(=O)(=O)c1ccc(Cc2ccc3[nH]c(=O)cc(C(F)(F)F)c3c2)cc1 [Example 68]
Request: Quick one: lower pIC50, 1 or 2 ? Give the chosen item's label as your response.
Response: 2
(2: 5.12, 1: 5.66)

----------
Target: androgen receptor (Homo sapiens)
Experiment: AR Antagonist Cell Assay (MMTV-luciferase reporter, DHT-stimulated)
Conditions: MDA-MB453-MMTV clone 54-19 cells; antagonism of 100 pM DHT, 17 hr, luciferase readout
pIC50: −log10 of the molar value.
ATTRIBUTE_MEASURED: pIC50

Here is how some molecules turned out for pIC50.
| LINE_NOTATION | pIC50 |
| --- | --- |
| O=c1cc(C(F)(F)F)c2cc(Cc3ccc(S(=O)(=O)Nc4ccc(Cl)cc4)cc3)ccc2o1 | 5.70 |
| Cc1ccc(CNS(=O)(=O)c2ccc(Cc3ccc4oc(=O)cc(C(F)(F)F)c4c3)cc2)c(F)c1F | 5.71 |
| O=c1cc(C(F)(F)F)c2cc(Cc3ccc(S(=O)(=O)Nc4cccc(C(F)(F)F)c4)cc3)ccc2o1 | 5.76 |

A = O=c1cc(C(F)(F)F)c2cc(Cc3ccc(S(=O)(=O)Nc4ccc(Cl)cc4)cc3)ccc2[nH]1
B = CSc1cccc(NS(=O)(=O)c2ccc(Cc3ccc4oc(=O)cc(C(F)(F)F)c4c3)cc2)c1
C = COc1ccccc1CCNS(=O)(=O)c1ccc(Cc2ccc3oc(=O)cc(C(F)(F)F)c3c2)cc1
Request: In this exercise, place the 3 molecules in ascending sequence of their recorded pIC50. Record the ranking as a list of labels in the requested order.
Response: C, A, B

----------
Biological target: androgen receptor (Homo sapiens, UniProt P10275)
Test: AR Antagonist Cell Assay (MMTV-luciferase reporter, DHT-stimulated)
Type: cell-based
Settings: MDA-MB453-MMTV clone 54-19 cells; antagonism of 100 pM DHT, 17 hr, luciferase readout
ATTRIBUTE_MEASURED: IC50 (µM)

Here is how some compounds turned out for IC50.
| COMPOUND | ASSAY_SYSTEM | IC50 / µM |
| --- | --- | --- |
| CN(CCc1ccccn1)S(=O)(=O)c1ccc(Cc2ccc3oc(=O)cc(C(F)(F)F)c3c2)cc1 [Example 111] | androgen receptor (Homo sapiens, UniProt P10275) | 4.78 |
| O=c1cc(C(F)(F)F)c2cc(Cc3ccc(S(=O)(=O)NCc4ccccc4Br)cc3)ccc2o1 [Example 203] | androgen receptor (Homo sapiens, UniProt P10275) | 2.19 |
| O=c1cc(C(F)(F)F)c2cc(Cc3ccc(S(=O)(=O)Nc4cccc(OC(F)F)c4)cc3)ccc2[nH]1 [Example 36] | androgen receptor (Homo sapiens, UniProt P10275) | 6.14 |
| O=c1cc(C(F)(F)F)c2cc(Cc3ccc(S(=O)(=O)Nc4ccc(CO)cc4)cc3)ccc2o1 [Example 124] | androgen receptor (Homo sapiens, UniProt P10275) | 2.31 |

a = O=c1cc(C(F)(F)F)c2cc(Cc3ccc(S(=O)(=O)Nc4ccc5c(c4)CCC5)cc3)ccc2o1 [Example 127]
b = Cc1ccc(-c2ccccc2)cc1NS(=O)(=O)c1ccc(Cc2ccc3oc(=O)cc(C(F)(F)F)c3c2)cc1 [Example 132]
c = O=c1cc(C(F)(F)F)c2cc(Cc3ccc(S(=O)(=O)Nc4cccc(Cc5ccccc5)c4)cc3)ccc2o1 [Example 149]
Request: In this exercise, place the 3 compounds in ascending sequence of their recorded IC50. Record the ranking as a list of labels in the requested order.
Response: a, c, b

----------
Target: androgen receptor (Homo sapiens, UniProt P10275)
Assay: AR Antagonist Cell Assay (MMTV-luciferase reporter, DHT-stimulated)
Settings: MDA-MB453-MMTV clone 54-19 cells; antagonism of 100 pM DHT, 17 hr, luciferase readout
pIC50: −log10 of the molar value.
Reported pIC50 values follow for various molecules

Here is how some molecules turned out for pIC50.
| LINE_NOTATION | ASSAY_SYSTEM | RECORDED_VALUE |
| --- | --- | --- |
| CC(C)(C)CCNS(=O)(=O)c1ccc(Cc2ccc3[nH]c(=O)cc(C(F)(F)F)c3c2)cc1 | androgen receptor (Homo sapiens, UniProt P10275) | < 5.00 |
| O=c1cc(C(F)(F)F)c2cc(Cc3ccc(S(=O)(=O)Nc4ccccc4CO)cc3)ccc2o1 | androgen receptor (Homo sapiens, UniProt P10275) | 5.50 |
| CCCCN(C)S(=O)(=O)c1ccc(Cc2ccc3[nH]c(=O)cc(C(F)(F)F)c3c2)cc1 | androgen receptor (Homo sapiens, UniProt P10275) | < 5.00 |
| O=c1cc(C(F)(F)F)c2cc(Cc3ccc(S(=O)(=O)Nc4ccc5c(c4)CCC5)cc3)ccc2[nH]1 | androgen receptor (Homo sapiens, UniProt P10275) | < 5.00 |
| O=c1cc(C(F)(F)F)c2cc(Cc3ccc(S(=O)(=O)Nc4cccc5cccnc45)cc3)ccc2[nH]1 | androgen receptor (Homo sapiens, UniProt P10275) | < 5.00 |

Then this molecule:
Request: Which pIC50 reading was recorded for the molecule `COc1cc(NS(=O)(=O)c2ccc(Cc3ccc4[nH]c(=O)cc(C(F)(F)F)c4c3)cc2)cc(OC)c1` ?
Response: < 5.00
